# Target of assay: T1, human 4-1BB, full length, on transfected cells (human, UniProt Q07011 24-255)
# T1 construct: whole, on cells; also called CHOK1-h4-1BB
# T1 sequence (Q07011 24-255): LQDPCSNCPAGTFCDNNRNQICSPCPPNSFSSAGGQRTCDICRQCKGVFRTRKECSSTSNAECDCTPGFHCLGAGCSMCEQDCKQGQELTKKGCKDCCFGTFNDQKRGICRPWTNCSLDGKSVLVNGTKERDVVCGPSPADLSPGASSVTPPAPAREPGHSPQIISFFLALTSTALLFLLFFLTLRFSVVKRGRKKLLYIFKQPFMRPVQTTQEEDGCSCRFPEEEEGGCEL
# Protocol details: FACS, CHOK1-h4-1BB cells; Ab 0.08 ug/ml
Property name: average fluorescence intensity

## Task Report average fluorescence intensity for 172E3E3 (antibody, V domains shown) VH: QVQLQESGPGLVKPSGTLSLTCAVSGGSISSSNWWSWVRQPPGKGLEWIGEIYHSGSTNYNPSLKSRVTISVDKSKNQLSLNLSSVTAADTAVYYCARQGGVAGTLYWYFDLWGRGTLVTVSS VL: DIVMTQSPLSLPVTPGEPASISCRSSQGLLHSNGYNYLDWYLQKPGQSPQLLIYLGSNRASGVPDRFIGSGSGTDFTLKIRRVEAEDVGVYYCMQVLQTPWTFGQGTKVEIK please.
## Result 172 MFI

## Task Query: average fluorescence intensity; subject: 113F6C6 (antibody, V domains shown, also called 4-1BB fully human antibody 113F6C6; 113F6F6) VH: QVQLVESGGGVVQPGRSLRLSCAASGLTFSSYGMHWVRQAPGKGLEWVAVIWYDGSNKYYADSVKGRFTISRDNSKNTLYLQMNSLRAEDTAVYYCAREEVLWFGELSYNYYYGMDVWGQGTTVTVSS VL: DIQMTQSPSSLSASVGDRVTITCRASQGISNYLAWYQQKPGKVPKLLIYAASTLQSGVPSRFSGSGSGTDFTLTISSLQPEDVATYYCQKYNSVPLTFGGGTKVEIK
## Result 154 MFI

## Task Entry 11H10C9 (antibody, V domains shown) VH: QVQLVESGGGVVQPGRSLRLSCAASGFTFSSYAMHWVRQAPGKGLEWVAIIWYDGSNQYYADSVKGRFTISRDNSMNTLYLQMNSLRAEDTAVYYCARVEQWLVSYFDFWGQGTLVTVSS VL: EIVMTQSPATLSVSPGERATLSCRASQSVSSNLAWYQQKPGQVPRLLIYGASTRATGIPARFSGSGSGTEFTLTISSLQSEDFAVYYCQQYNNWPTFGGGTKVEIK : reported average fluorescence intensity = ?
## Result 200 MFI
